Readout Name: melting point

> print(dat)
                     smiles.repr   readout.name    measurement
1    Nc1ccc(C(=O)NCCN2CCOCC2)cc1  melting point  157 to 159 °C
2  CCOc1ccc(C(C)(C)C(=O)O)cc1OCC  melting point    74 to 76 °C
3   O=C(O)Cc1coc(-c2ccc(F)cc2)n1  melting point  166 to 168 °C
4        O=S(=O)(Cl)c1ccc(Cl)nc1  melting point    48 to 50 °C

----------
Readout Name: melting point

> print(dat)
                                    molecule    measurement
 1                         CCc1ccc(C(=O)O)o1    89 to 91 °C
 2                 CCOC(=O)c1c(N)cc(OC)cc1OC    61 to 63 °C
 3                    Cc1nnc2ccc(C(=O)O)cn12  307 to 309 °C
 4  O=C(O)C1CCCN(C(=O)c2ccc(Cl)cc2)C1 (configuration not stated)  145 to 152 °C
 5  CCN(C(=O)OC(C)(C)C)C(C(N)=S)c1cccnc1 (configuration not stated)  139 to 141 °C
 6  CC(O)C1CCCNC1 (configuration not stated)    52 to 54 °C
 7  O=C1C(Br)CCN1c1ccc(F)c(Cl)c1 (configuration not stated)   99 to 101 °C
 8                    Cc1cc(C)c(C(=O)O)[nH]1  109 to 111 °C
 9                  NC(=O)c1ccc(NCC(=O)O)cc1  271 to 273 °C
10        COC(=O)c1cc([N+](=O)[O-])c[nH]c1=O  254 to 256 °C
11                     O=C(O)CCOc1cccc(Cl)c1    85 to 87 °C
12           CCOC(=O)c1sc2nc(CCl)nc(Cl)c2c1C  168 to 170 °C
13                CC(C)c1ccc(-c2nnc(N)s2)cc1  205 to 207 °C
14         NC1=NN(c2c(Cl)cc(Cl)cc2Cl)C(=O)C1  218 to 220 °C
15                        O=C(O)c1ccc(CS)cc1  179 to 181 °C
16  NC(=O)C1CC(C(=O)O)=NN1c1ccccc1 (configuration not stated)  209 to 211 °C
17                      Cn1nnnc1-c1cccc(N)c1  147 to 149 °C

----------
# melting point annotations
Readout Name: melting point

> print(dat)
                                    molecule   readout.name    measurement
 1     COc1cc(C=O)c([N+](=O)[O-])cc1OCC(=O)O  melting point  179 to 181 °C
 2    Cc1cc(C(=O)CCl)c(C)n1-c1ccc2c(c1)OCCO2  melting point   99 to 103 °C
 3          CCc1ccc2c(c1)C(=O)C(=O)N2CC(=O)O  melting point  166 to 168 °C
 4                    NC(=O)c1ccc(OC(F)F)cc1  melting point  130 to 132 °C
 5                N#Cc1cnn(-c2ccc(Br)cc2)c1N  melting point  177 to 179 °C
 6                    CC(=O)CC(=O)Nc1ccccc1F  melting point    75 to 77 °C
 7  CSc1ccccc1NC(=O)C(C)Cl (stereo not given)  melting point    59 to 61 °C
 8           CCN1C(=C2C=NN(C)C2=N)Nc2ccccc21  melting point  111 to 113 °C
 9                     CCOc1ccc(NC(=O)CO)cc1  melting point  150 to 152 °C
10            CCOC(=O)c1cc(F)ccc1S(=O)(=O)Cl  melting point    69 to 71 °C
11           CN(C)S(=O)(=O)c1cccc(C(=O)NN)c1  melting point  149 to 151 °C
12                         CC(C)Nc1cccc(O)c1  melting point    95 to 97 °C
13                  COc1cc2[nH]nnc2cc1C(=O)O  melting point  219 to 221 °C
14                Cc1sc2ncnc(SCCC(=O)O)c2c1C  melting point  187 to 189 °C
15        Cc1cc(C)n(-c2ccc(Cl)c(C(=O)O)n2)n1  melting point  184 to 186 °C
16                 CN(C)S(=O)(=O)c1ccnc(N)c1  melting point  148 to 150 °C
17               O=C(O)CNC(=O)c1ccc2ccccc2c1  melting point  171 to 175 °C
18    N#Cc1[nH]c(=O)n(Cc2ccccc2)c1NCc1ccccc1  melting point  140 to 142 °C
19  CC(C)CC1(C)CC(=O)NC1=O (stereo not given)  melting point    81 to 83 °C
20  Cn1ccc(N2CCCC(N)C2=O)n1 (stereo not given)  melting point    79 to 81 °C
